# experimentalTarget: calpain-2 (Homo sapiens)
# Sequence (P17655 whole entry, one chain of several): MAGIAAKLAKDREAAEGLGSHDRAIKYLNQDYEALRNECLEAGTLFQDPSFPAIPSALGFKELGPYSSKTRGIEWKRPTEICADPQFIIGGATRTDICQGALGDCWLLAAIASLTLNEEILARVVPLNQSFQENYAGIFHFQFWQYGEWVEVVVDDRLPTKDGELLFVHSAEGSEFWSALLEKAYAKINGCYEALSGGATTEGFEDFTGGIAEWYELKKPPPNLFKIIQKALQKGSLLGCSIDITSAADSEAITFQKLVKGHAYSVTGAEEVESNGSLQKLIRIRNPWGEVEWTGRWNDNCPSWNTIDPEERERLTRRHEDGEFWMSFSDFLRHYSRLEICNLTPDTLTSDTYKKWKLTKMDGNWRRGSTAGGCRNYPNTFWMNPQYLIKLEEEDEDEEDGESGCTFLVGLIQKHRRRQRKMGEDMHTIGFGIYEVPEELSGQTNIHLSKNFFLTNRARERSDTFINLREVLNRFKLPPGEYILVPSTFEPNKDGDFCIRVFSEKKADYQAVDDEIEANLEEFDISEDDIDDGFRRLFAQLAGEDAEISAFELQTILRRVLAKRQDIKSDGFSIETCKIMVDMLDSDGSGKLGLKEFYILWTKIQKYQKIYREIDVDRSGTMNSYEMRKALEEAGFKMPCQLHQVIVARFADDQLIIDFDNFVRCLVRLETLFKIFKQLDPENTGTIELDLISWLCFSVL
measurementName: IC50 (nM)
Numbers only, in nM.

*Q* API: value(readout= IC50, system= calpain-2 (Homo sapiens), query= CCC(NC(=O)C(CC(C)C)NC(=O)OCc1ccccc1)C(=O)C(=O)NCc1cc(OC)cc(OC)c1 (racemic) )
*A* 210

###

Exercise: for every item that follows, state its recorded Ki.
# experimentalTarget: calpain-1 (Homo sapiens, UniProt P07384)
# Sequence (P07384 1-714): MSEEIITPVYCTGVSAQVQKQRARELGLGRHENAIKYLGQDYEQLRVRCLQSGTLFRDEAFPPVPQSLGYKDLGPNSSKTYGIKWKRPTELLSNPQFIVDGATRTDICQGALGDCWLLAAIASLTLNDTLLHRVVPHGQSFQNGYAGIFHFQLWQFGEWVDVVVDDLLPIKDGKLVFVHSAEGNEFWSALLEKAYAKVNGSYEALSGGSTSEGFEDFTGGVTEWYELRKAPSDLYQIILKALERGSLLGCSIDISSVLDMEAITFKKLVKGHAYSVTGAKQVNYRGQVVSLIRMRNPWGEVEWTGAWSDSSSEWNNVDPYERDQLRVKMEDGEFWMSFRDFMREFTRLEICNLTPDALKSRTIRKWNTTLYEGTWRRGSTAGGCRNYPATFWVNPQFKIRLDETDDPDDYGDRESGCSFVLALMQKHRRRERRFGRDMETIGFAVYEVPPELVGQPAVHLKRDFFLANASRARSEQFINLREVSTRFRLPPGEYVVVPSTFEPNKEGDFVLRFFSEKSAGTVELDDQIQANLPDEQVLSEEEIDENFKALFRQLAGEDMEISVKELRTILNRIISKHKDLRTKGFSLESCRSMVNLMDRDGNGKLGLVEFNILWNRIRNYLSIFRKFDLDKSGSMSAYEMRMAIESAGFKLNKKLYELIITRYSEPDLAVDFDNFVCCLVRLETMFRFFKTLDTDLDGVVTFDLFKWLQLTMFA
# Sequence (P04632 1-268 partner): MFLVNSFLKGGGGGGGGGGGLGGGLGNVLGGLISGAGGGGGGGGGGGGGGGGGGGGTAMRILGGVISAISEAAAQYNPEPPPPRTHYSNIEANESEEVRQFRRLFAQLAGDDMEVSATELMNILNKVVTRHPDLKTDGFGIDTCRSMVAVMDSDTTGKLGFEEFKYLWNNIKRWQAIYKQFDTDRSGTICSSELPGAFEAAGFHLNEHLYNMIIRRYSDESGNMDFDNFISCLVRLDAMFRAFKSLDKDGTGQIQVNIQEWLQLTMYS
# assayMethodText: in vitro calpain-1 inhibition, succinic-Leu-Tyr-AMC substrate
# Assay type: biochemical
# experimentalContext: Example 13; n = 3-5; read-out: Ki Calpain-1
Numbers only, in nM.

// below: answered molecules
molecule	measurementName	observedValue
CCC(NC(=O)C(CC(C)C)NC(=O)OCc1ccccc1)C(=O)C(=O)NCc1cc(OC)cc(OC)c1 (racemic) [Formula 1, Z-Leu-Abu-CONH—CH2-C6H3 (3, 5-(OMe)2)]	Ki	662
CC[C@@H](NC(=O)[C@H](CC(C)C)NC(=O)OCc1ccccc1)C(=O)C(=O)NCc1cc(OC)cc(OC)c1 [Formula 1B]	Ki	514000

Here is another molecule to look at.
*Q* Please give the measured Ki for this molecule: CC[C@H](NC(=O)[C@H](CC(C)C)NC(=O)OCc1ccccc1)C(=O)C(=O)NCc1cc(OC)cc(OC)c1 [Formula 1A]
*A* 181

###

# experimentalTarget: UniProt:P07384
# assayMethodText: in vitro calpain-1 inhibition, succinic-Leu-Tyr-AMC substrate
# Assay type: biochemical
# experimentalContext: Example 1; chiral center 2 racemic; read-out: Ki of calpain-1, re-determined herein
measurementName: Ki (µM)
Numbers only, in µM.

*Q* Please give the measured Ki for this compound: CCC(NC(=O)C(CC(C)C)NC(=O)OCc1ccccc1)C(=O)C(=O)NCc1cc(OC)cc(OC)c1 (racemic)
*A* 1.29

###

# experimentalTarget: UniProt:P07384
# assayMethodText: in vitro calpain-1 inhibition, succinic-Leu-Tyr-AMC substrate
# Assay type: biochemical
# experimentalContext: earlier value, unit inferred; read-out: Previous Value (Calpain-1)
measurementName: Ki (nM)
Give bare numbers, in nM.

*Q* Please give the measured Ki for this compound: CCC(NC(=O)C(CC(C)C)NC(=O)OCc1ccccc1)C(=O)C(=O)NCc1cc(OC)cc(OC)c1 (racemic)
*A* 940
